target.entity: FP receptor (Homo sapiens (Human))
assay.name: In vitro test of inhibition of human FP receptor activity (PGF2α-induced calcium flux in FP-expressing CHEM1 cells)
setup.conditions: PGF2α-induced (2 nM) calcium flux in FP-expressing CHEM1 cells; some as mean values from multiple determinations
With a cut-off of 40 nM, any IC50 strictly below it is called Condition met; any IC50 meeting it or above is called Condition not met.

{"columns": ["compound", "label.class"],
 "data": [
  ["Cc1c(-c2ccccc2)nc2ccc(Br)cc2c1C(=O)NCC(CCC(=O)O)c1c(F)cccc1F (single isomer, unassigned; (-)) [Example 182]", "Condition met"],
  ["Cc1c(-c2ccccc2)nc2ccc(Br)cc2c1C(=O)NCC(CC(=O)O)c1ccccc1C(F)(F)F (single isomer, unassigned; (+)) [Example 106]", "Condition not met"],
  ["Cc1c(-c2ccccc2)nc2ccc(Br)cc2c1C(=O)NCC(C)(C(=O)O)c1c(F)cccc1F (single isomer, unassigned; (+)) [Example 33]", "Condition not met"],
  ["Cc1c(-c2ccccc2)nc2ccc(Br)cc2c1C(=O)NCC(CC(=O)O)c1cccc(Cl)c1 (single isomer, unassigned) [Example 74]", "Condition not met"],
  ["Cc1c(-c2ccccc2)nc2ccc(Br)cc2c1C(=O)NCC(CC(=O)O)c1ccccc1OC(F)(F)F (single isomer, unassigned; (+)) [Example 101]", "Condition met"],
  ["COc1cccc(F)c1C(CNC(=O)c1c(C)c(-c2ccccc2)nc2ccc(Br)cc12)C(=O)O (single isomer, unassigned; (+)) [Example 58]", "Condition met"],
  ["COc1cccc(F)c1C(C)(CNC(=O)c1c(C)c(-c2ccccc2)nc2ccc(Br)cc12)CC(=O)O (racemic) [Example 142]", "Condition met"],
  ["COc1cccc(F)c1C(CNC(=O)c1c(C)c(-c2ccccc2)nc2ccc(Br)cc12)CC(=O)O (single isomer, unassigned; (+)) [Example 127]", "Condition met"],
  ["Cc1c(-c2ccccc2)nc2ccc(Br)cc2c1C(=O)NCC(CCC(=O)O)c1cc(F)cc(F)c1F (single isomer, unassigned) [Example 233]", "Condition met"],
  ["Cc1c(-c2ccccc2)nc2ccc(Br)cc2c1C(=O)NCC(CCC(=O)O)c1cc(F)ccc1Cl (single isomer, unassigned; (+)) [Example 165]", "Condition met"],
  ["Cc1c(-c2ccccc2)nc2ccc(Br)cc2c1C(=O)NCC(C)(C(=O)O)c1ccccc1F (single isomer, unassigned; (+)) [Example 30]", "Condition not met"],
  ["Cc1c(-c2ccccc2)nc2ccc(Br)cc2c1C(=O)NCC(CC(=O)O)c1ccccc1 (single isomer, unassigned; (+)) [Example 65]", "Condition not met"],
  ["O=C(O)CCC(CNC(=O)c1c(Cl)c(-c2ccccc2)nc2ccc(Br)cc12)c1c(F)ccc(F)c1Cl (single isomer, unassigned; (-)) [Example 222]", "Condition met"],
  ["Cc1c(-c2ccccc2)nc2ccc(Br)cc2c1C(=O)NCC(CCC(=O)O)c1cc(F)cc(F)c1F (racemic) [Example 231]", "Condition met"],
  ["COc1cccc(F)c1C(C)(CNC(=O)c1c(C)c(-c2ccccc2)nc2ccc(Br)cc12)CC(=O)O (single isomer, unassigned; (-)) [Example 144]", "Condition not met"],
  ["Cc1ccccc1C(CCC(=O)O)CNC(=O)c1c(C)c(-c2ccccc2)nc2ccc(Br)cc12 (racemic) [Example 160]", "Condition met"],
  ["COc1ccccc1C(CCC(=O)O)CNC(=O)c1c(C)c(-c2ccccc2)nc2ccc(Br)cc12 (single isomer, unassigned; (+)) [Example 168]", "Condition met"],
  ["Cc1c(-c2ccccc2)nc2ccc(Br)cc2c1C(=O)NCC(O)(C(=O)O)c1ccccc1 (single isomer, unassigned; (-)) [Example 21]", "Condition not met"],
  ["CCOc1ccccc1C(CNC(=O)c1c(C)c(-c2ccccc2)nc2ccc(Br)cc12)CC(=O)O (single isomer, unassigned; (+)) [Example 131]", "Condition not met"],
  ["Cc1c(-c2ccccc2)nc2ccc(Br)cc2c1C(=O)NCC(CCC(=O)O)c1ccccc1Cl (single isomer, unassigned; (-)) [Example 152]", "Condition met"],
  ["Cc1c(-c2ccccc2)nc2ccc(Br)cc2c1C(=O)NCC(C)(CC(=O)O)c1ccccc1Cl (racemic) [Example 114]", "Condition met"],
  ["Cc1c(-c2ccccc2)nc2ccc(Br)cc2c1C(=O)NCC(C)(CC(=O)O)c1ccccn1 (single isomer, unassigned; (+)) [Example 118]", "Condition not met"],
  ["Cc1c(-c2ccccc2)nc2ccc(Br)cc2c1C(=O)NCC(CC(=O)O)c1cccc(Cl)c1 (racemic) [Example 72]", "Condition not met"],
  ["Cc1c(-c2ccccc2)nc2ccc(Br)cc2c1C(=O)NCC(CCC(=O)O)c1ccccc1Cl (single isomer, unassigned; (+)) [Ex. 153]", "Condition met"]
]}

====

The reader will find reported pIC50 values listed item by item below.
target.entity: FP receptor (Homo sapiens (Human), UniProt P43088)
Sequence (P43088 whole entry): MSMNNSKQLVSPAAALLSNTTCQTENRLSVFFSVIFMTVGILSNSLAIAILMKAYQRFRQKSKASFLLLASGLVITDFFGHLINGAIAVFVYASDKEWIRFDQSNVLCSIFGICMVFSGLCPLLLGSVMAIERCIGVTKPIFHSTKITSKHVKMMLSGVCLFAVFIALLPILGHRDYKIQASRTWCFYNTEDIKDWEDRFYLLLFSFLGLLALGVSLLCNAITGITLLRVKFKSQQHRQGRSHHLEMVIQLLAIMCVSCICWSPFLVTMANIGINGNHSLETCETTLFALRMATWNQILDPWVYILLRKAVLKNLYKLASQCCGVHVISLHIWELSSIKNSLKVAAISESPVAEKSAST
assay.name: In vitro test of inhibition of human FP receptor activity (PGF2α-induced calcium flux in FP-expressing CHEM1 cells)
setup.conditions: PGF2α-induced (2 nM) calcium flux in FP-expressing CHEM1 cells; some as mean values from multiple determinations
pIC50: −log10 of the molar value.

{"columns": ["molecule", "relation.sign", "pIC50"],
 "data": [
  ["Cc1c(-c2ccccc2)nc2ccc(Br)cc2c1C(=O)NCC(OCC(=O)O)c1ccccc1Cl (single isomer, unassigned; (+)) [Example 192]", "=", 7.38],
  ["COc1cc(F)ccc1C(C)(CNC(=O)c1c(C)c(-c2ccccc2)nc2ccc(Br)cc12)CC(=O)O (single isomer, unassigned; (-)) [Example 140]", "<", 6.00],
  ["Cc1c(-c2ccccc2)nc2ccc(Br)cc2c1C(=O)NCC(C)(C(=O)O)c1c(F)cccc1F (racemic) [Example 32]", "=", 6.82],
  ["COc1cc(F)ccc1C(C)(CNC(=O)c1c(C)c(-c2ccccc2)nc2ccc(Br)cc12)CC(=O)O (racemic) [Example 138]", "=", 7.38],
  ["COc1ccc(F)cc1C(CNC(=O)c1c(C)c(-c2ccccc2)nc2ccc(Br)cc12)CC(=O)O (single isomer, unassigned; (+)) [Example 124]", "=", 8.28],
  ["Cc1c(-c2ccccc2)nc2ccc(Br)cc2c1C(=O)NCC(SCC(=O)O)c1ccccc1Cl (single isomer, unassigned; (-)) [Example 196]", "=", 7.92]
]}

====

The reader will find reported pIC50 values listed item by item below.
target.entity: FP receptor (Homo sapiens (Human))
assay.name: In vitro test of inhibition of human FP receptor activity (PGF2α-induced calcium flux in FP-expressing CHEM1 cells)
setup.conditions: PGF2α-induced (2 nM) calcium flux in FP-expressing CHEM1 cells; some as mean values from multiple determinations
pIC50: −log10 of the molar value.
reported.metric: pIC50

{"columns": ["molecule", "value.measured"],
 "data": [
  ["Cc1c(-c2ccccc2)nc2ccc(Br)cc2c1C(=O)NCC(CC(=O)O)c1cccc(Cl)c1 (single isomer, unassigned) [Example 73]", 7.07],
  ["Cc1c(-c2ccccc2)nc2ccc(Br)cc2c1C(=O)NCC(CCC(=O)O)c1c(F)cccc1Cl (racemic) [Example 157]", 8.43],
  ["C#Cc1ccc2nc(-c3ccccc3)c(C)c(C(=O)NCC(CCC(=O)O)c3ccccc3Cl)c2c1 (racemic) [Example 218]", 7.89],
  ["Cc1c(-c2ccccc2)nc2ccc(Br)cc2c1C(=O)NCC(CCC(=O)O)c1ccccc1OC(F)(F)F (single isomer, unassigned; (-)) [Example 211]", 8.77],
  ["Cc1c(-c2ccccc2)nc2ccc(Br)cc2c1C(=O)NCC(CCC(=O)O)c1ccccc1F (racemic) [Example 175]", 7.82],
  ["Cc1c(-c2ccccc2)nc2ccc(Br)cc2c1C(=O)NCC(C)(C(=O)O)c1cccc(C(F)(F)F)c1 (single isomer, unassigned; (+)) [Example 43]", 6.85],
  ["COc1ccccc1C(CCC(=O)O)CNC(=O)c1c(C)c(-c2ccccc2)nc2ccc(Br)cc12 (racemic) [Example 166]", 8.21],
  ["Cc1c(-c2ccccc2)nc2ccc(Br)cc2c1C(=O)NCC(C(=O)O)c1cccc(C(F)(F)F)c1 (racemic)", 7.12],
  ["Cc1c(-c2ccccc2)nc2ccc(Br)cc2c1C(=O)NCC(O)(C(=O)O)c1ccccc1 (racemic) [Example 19]", 6.82],
  ["COc1ccccc1C(O)(CNC(=O)c1c(C)c(-c2ccccc2)nc2ccc(Br)cc12)C(=O)O (single isomer, unassigned; (+)) [Example 55]", 7.11],
  ["Cc1c(-c2ccccc2)nc2ccc(Br)cc2c1C(=O)NCC(C(=O)O)c1ccc2c(c1)OCO2 (single isomer, unassigned) [Example 24]", 6.24],
  ["Cc1ccccc1C(CNC(=O)c1c(C)c(-c2ccccc2)nc2ccc(Br)cc12)CC(=O)O (racemic) [Example 75]", 7.16],
  ["Cc1c(-c2ccccc2)nc2ccc(Br)cc2c1C(=O)NCC(c1ccccc1Cl)S(=O)(=O)CC(=O)O (single isomer, unassigned) [Example 198]", 6.40],
  ["Cc1c(-c2ccccc2)nc2ccc(Br)cc2c1C(=O)NCC(C)(CCCC(=O)O)c1ccccc1 (single isomer, unassigned; (+)) [Example 245]", 7.20],
  ["COc1ccc(F)cc1C(C)(CNC(=O)c1c(C)c(-c2ccccc2)nc2ccc(Br)cc12)CC(=O)O (single isomer, unassigned; (+)) [Example 133]", 7.33],
  ["Cc1ccc(F)cc1C(CCC(=O)O)CNC(=O)c1c(C)c(-c2ccccc2)nc2ccc(Br)cc12 (single isomer, unassigned; (+)) [Example 208]", 7.96],
  ["COc1cccnc1C(CNC(=O)c1c(C)c(-c2ccccc2)nc2ccc(Br)cc12)CC(=O)O (single isomer, unassigned; (+)) [Example 110]", 7.12],
  ["Cc1c(-c2ccccc2)nc2ccc(Br)cc2c1C(=O)NCC(CCC(=O)O)c1c(F)cccc1C(F)(F)F (single isomer, unassigned; (+)) [Example 226]", 7.00],
  ["COc1cccc(F)c1C(CNC(=O)c1c(C)c(-c2ccccc2)nc2ccc(Br)cc12)C(=O)O (single isomer, unassigned; (-)) [Example 57]", 6.68],
  ["O=C(O)CCC(CNC(=O)c1c(Cl)c(-c2ccccc2)nc2ccc(Br)cc12)c1ccccc1Cl (racemic) [Example 212]", 8.18],
  ["Cc1c(-c2ccccc2)nc2ccc(Br)cc2c1C(=O)NCC(CC(=O)O)c1c(F)cccc1Cl (racemic) [Example 87]", 7.64],
  ["COc1cccc(C(CNC(=O)c2c(C)c(-c3ccccc3)nc3ccc(Br)cc23)C(=O)O)c1 (single isomer, unassigned; (+)) [Example 46]", 6.64],
  ["Cc1c(-c2ccccc2)nc2ccc(Br)cc2c1C(=O)NCC(F)(C(=O)O)c1ccccc1 (single isomer, unassigned; (+)) [Example 40]", 7.47],
  ["Cc1c(-c2ccccc2)nc2ccc(Br)cc2c1C(=O)NCC(CCC(=O)O)c1c(Cl)ccc(F)c1F (racemic) [Example 200]", 8.44],
  ["Cc1c(-c2ccccc2)nc2ccc(Br)cc2c1C(=O)NCC(CCC(=O)O)c1ccccc1C(F)(F)F (single isomer, unassigned; (-)) [Example 204]", 8.43]
]}

Origin of the recorded values: patent US11136296B2
